Data provenance is patent US20160002331A1.

This listing pairs binders with measured IC50, mouse Notch1 reporter gene co-culture assay (DLL4-HEK293).
# assayTarget: full-length mouse Notch1 expressed on the cell surface of U-2 OS cells (mouse, UniProt Q01705 19-2531)
# Sequence (Q01705 19-2531): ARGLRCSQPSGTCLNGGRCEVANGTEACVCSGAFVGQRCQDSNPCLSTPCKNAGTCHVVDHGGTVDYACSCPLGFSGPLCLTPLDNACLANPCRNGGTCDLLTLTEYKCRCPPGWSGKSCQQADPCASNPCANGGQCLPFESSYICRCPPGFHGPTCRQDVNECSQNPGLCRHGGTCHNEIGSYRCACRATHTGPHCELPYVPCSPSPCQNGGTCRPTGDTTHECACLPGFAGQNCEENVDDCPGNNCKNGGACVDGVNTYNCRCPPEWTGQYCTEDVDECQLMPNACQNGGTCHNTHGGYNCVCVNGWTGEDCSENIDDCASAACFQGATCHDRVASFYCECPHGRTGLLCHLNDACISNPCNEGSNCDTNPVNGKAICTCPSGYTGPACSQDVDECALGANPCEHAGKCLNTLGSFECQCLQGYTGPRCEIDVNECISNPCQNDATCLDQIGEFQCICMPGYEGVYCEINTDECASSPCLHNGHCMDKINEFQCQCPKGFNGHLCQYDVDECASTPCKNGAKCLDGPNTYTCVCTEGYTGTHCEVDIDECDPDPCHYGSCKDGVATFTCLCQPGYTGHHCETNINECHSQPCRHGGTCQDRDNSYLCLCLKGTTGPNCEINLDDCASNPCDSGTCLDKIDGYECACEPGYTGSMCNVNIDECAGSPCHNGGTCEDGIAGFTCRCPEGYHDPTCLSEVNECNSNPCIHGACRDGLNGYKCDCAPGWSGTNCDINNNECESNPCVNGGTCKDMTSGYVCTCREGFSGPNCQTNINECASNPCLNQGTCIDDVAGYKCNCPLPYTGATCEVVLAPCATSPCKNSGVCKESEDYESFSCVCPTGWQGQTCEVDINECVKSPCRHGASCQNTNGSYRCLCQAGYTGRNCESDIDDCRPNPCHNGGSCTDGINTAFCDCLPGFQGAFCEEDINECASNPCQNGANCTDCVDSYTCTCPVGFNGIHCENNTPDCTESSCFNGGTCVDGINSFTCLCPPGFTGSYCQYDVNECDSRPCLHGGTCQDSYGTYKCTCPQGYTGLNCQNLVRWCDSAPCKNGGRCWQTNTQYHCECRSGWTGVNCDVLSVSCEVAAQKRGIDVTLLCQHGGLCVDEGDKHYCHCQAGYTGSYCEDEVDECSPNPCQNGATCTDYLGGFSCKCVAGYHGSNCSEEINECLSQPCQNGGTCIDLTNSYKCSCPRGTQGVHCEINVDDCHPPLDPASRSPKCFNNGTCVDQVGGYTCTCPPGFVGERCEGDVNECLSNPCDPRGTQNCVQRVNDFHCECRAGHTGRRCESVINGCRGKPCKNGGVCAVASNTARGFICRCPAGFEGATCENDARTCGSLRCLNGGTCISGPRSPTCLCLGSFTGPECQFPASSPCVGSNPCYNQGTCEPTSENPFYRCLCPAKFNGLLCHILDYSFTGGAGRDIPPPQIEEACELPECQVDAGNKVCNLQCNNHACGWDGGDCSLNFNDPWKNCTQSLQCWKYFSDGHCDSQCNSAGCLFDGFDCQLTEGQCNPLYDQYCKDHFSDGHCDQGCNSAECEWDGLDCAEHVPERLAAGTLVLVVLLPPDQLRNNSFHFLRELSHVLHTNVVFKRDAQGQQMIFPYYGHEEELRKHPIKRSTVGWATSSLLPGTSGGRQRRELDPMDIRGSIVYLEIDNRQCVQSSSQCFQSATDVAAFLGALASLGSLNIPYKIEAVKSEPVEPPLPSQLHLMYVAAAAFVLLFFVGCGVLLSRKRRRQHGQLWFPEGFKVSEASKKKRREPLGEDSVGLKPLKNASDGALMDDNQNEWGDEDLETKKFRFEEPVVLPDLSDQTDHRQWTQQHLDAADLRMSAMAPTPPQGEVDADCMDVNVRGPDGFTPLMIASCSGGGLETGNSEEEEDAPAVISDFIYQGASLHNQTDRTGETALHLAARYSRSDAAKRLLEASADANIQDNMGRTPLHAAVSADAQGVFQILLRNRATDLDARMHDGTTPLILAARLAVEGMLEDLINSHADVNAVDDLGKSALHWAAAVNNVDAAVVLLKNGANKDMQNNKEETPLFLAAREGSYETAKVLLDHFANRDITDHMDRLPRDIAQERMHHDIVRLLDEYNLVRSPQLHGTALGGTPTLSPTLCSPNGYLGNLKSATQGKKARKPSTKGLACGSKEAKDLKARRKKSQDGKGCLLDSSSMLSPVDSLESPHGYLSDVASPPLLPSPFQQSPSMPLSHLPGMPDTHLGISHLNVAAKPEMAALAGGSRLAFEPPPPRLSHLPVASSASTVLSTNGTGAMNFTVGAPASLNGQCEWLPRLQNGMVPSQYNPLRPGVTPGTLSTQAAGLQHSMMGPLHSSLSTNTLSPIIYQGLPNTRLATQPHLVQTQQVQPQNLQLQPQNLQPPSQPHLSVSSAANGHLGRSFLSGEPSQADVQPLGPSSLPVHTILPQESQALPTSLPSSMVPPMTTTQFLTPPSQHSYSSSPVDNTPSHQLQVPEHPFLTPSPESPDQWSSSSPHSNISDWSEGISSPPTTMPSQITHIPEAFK
# assayExplanation: cell-based or functional assay
measurementName: IC50, mouse Notch1 reporter gene co-culture assay (DLL4-HEK293) (nM)

{"binder": "humanized 438 VH1.1/VL1.8 (antibody, human IgG1, kappa, V domains shown, full chains (VH1.1)-hIgG1-3M and (VL1.8)-hkappa) VH: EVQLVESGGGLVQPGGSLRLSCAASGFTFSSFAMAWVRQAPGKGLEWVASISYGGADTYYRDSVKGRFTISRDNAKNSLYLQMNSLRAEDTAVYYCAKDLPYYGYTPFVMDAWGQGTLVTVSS VL: DIQMTQSPSSLSASVGDRVTITCRASQRINTDLHWYQQKPGKAPKVLIKFASQTISGVPSRFSGSGSGTDFTLTISSLQPEDFATYYCQQSNSWPYTFGQGTKLEIKR", "assayValue": 0.46}
{"binder": "rat 438-mIgG1 (antibody, V domains shown, also called r438-mIgG; Rat438-mlgG) VH: AVQLVESGGGLVQPGRSLKLSCTASGFTFSSFAMAWVRQAPTKGLEWVASISYGGADTYYRDSVKGRFTISRDNAKSSLYLQMDSLRSEDTSTYYCAKDLPYYGYTPFVMDAWGQGTSVTVSS VL: DIMLTQSPPTLSVTPGETISLSCRASQRINTDLHWYQQKPNESPRVLIKFASQTISGVPSRFSGSGSGTDFTLNINRVEPEDFSVYYCQQSNSWPYTFGAGTKLELK", "assayValue": 0.71}
{"binder": "humanized 438 VH1.1/VL1.5 (antibody, human IgG1, V domains shown) VH: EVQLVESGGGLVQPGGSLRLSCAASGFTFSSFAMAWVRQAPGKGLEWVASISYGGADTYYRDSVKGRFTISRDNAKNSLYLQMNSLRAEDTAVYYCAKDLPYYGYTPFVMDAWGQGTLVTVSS VL: DIQMTQSPSSLSASVGDRVTITCRASQRINTDLHWYQQKPGKAPKLLIKFASQTISGVPSRFSGSGSGTDFTLTISSLQPEDFATYYCQQSNSWPYTFGQGTKLEIK", "assayValue": 0.5}
